All values here come from ChEMBL document CHEMBL1134500.

Entries and their Activation
Biological target: Estrogen receptor (Homo sapiens)
Sequence (whole entry): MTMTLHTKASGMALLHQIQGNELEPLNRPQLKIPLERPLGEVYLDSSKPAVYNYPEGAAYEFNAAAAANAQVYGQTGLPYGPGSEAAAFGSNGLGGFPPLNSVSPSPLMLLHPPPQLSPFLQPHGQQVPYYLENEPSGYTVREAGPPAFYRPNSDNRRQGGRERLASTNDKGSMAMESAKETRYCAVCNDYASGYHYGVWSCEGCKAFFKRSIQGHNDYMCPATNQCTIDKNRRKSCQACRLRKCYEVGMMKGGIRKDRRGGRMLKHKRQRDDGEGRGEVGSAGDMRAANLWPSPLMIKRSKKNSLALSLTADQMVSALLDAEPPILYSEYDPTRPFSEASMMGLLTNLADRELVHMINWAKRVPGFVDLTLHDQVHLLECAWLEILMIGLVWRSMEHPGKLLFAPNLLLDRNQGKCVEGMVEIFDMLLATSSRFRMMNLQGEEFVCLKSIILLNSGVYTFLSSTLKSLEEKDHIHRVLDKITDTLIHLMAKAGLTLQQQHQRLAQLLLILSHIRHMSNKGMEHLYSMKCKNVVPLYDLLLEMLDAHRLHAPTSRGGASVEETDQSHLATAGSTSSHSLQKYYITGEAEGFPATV
Experiment: Transcriptional activation in MCF-7-2a cells expressing estrogen receptor alpha at 10e-6 M
Format: functional, cell-based
Provide only the numeric value, understood in %.

COc1ccc([C@H]2NCCN[C@H]2c2c(Cl)cc(OC)cc2Cl)c(Cl)c1    3
N[C@H](c1ccc(O)cc1Cl)[C@@H](N)c1c(Cl)cc(O)cc1Cl    98

Lookup: // query Activation value for entry Oc1ccc([C@H]2NCCN[C@H]2c2c(Cl)cc(O)cc2Cl)c(Cl)c1
Found: 20

Lookup: // query Activation value for entry COc1ccc([C@H]2N=CN[C@H]2c2c(Cl)cc(OC)cc2Cl)c(Cl)c1
Found: 6

Lookup: // query Activation value for entry Oc1ccc(-c2[nH]cnc2-c2c(Cl)cc(O)cc2Cl)c(Cl)c1
Found: 27

Lookup: // query Activation value for entry COc1ccc([C@@H](N)[C@@H](N)c2c(Cl)cc(OC)cc2Cl)c(Cl)c1
Found: 0

Lookup: // query Activation value for entry COc1ccc(-c2[nH]cnc2-c2c(Cl)cc(OC)cc2Cl)c(Cl)c1
Found: 6

###

Entries and their RBA
biological target: Estrogen receptor (Bos taurus) (UniProt Q9XSB5+P49884); test: Displacement of 17-beta-[3H]-estradiol from estrogen receptor relative to 17-beta-estradiol; format: protein assay
Provide only the numeric value, understood in %.

N[C@H](c1ccc(O)cc1Cl)[C@@H](N)c1c(Cl)cc(O)cc1Cl    1.5
COc1ccc(-c2[nH]cnc2-c2c(Cl)cc(OC)cc2Cl)c(Cl)c1    0
COc1ccc([C@H]2N=CN[C@H]2c2c(Cl)cc(OC)cc2Cl)c(Cl)c1    0
COc1ccc([C@H]2NCCN[C@H]2c2c(Cl)cc(OC)cc2Cl)c(Cl)c1    0
Oc1ccc(-c2[nH]cnc2-c2c(Cl)cc(O)cc2Cl)c(Cl)c1    0.1

In the following, a different compound is considered.
Lookup: // query RBA value for entry COc1ccc([C@@H](N)[C@@H](N)c2c(Cl)cc(OC)cc2Cl)c(Cl)c1
Found: 0
